target: Peptide 1: Biotin-…-[Tyr(PC)]-acid; assay: scFv ELISA
Sequence (peptide, as listed by the source): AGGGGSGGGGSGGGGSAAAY
Below, each entry is listed alongside its reported OD450.
Field: numeric (OD450). Do not append units.

Req: I have this binder here, PcOxP_DB04_B06 (scFv, V domains shown, scFv in periplasmic extract) VH: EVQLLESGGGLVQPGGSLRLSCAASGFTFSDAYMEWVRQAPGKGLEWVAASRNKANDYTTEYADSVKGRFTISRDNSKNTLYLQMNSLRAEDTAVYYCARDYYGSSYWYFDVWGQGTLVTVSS VL: DIQMTQSPSSLSASVGDRVTITCTASESLYSSKHKVHYLAWYQQKPGKAPKLLIYGASNRYIGVPSRFSGSGSGTDFTLTISSLQPEDFATYYCAQFYDYPLTFGGGTKVEIK , and I need its recorded OD450.
Resp: 0.66

Req: Query: OD450; subject: PcOxP_DB03_A03 (scFv, V domains shown, scFv in periplasmic extract) VH: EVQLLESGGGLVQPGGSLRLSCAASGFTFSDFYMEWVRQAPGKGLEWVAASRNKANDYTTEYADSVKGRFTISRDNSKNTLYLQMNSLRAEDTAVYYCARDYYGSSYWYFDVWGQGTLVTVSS VL: DIQMTQSPSSLSASVGDRVTITCTASESLYSSKHKVHYLAWYQQKPGKAPKLLIYGASFRYIGVPSRFSGSGSGTDFTLTISSLQPEDFATYYCAQFYSYPLTFGGGTKVEIK
Resp: 0.54

Req: Which value of OD450 has been reported for PcOxP_DB03_H02 (scFv, V domains shown, scFv in periplasmic extract) VH: EVQLLESGGGLVQPGGSLRLSCAASGFTESDFYMEWVRQAPGKGLEWVAASRNKYNDYTTEYADSVKGRFTISRDNSKNTLYLQMNSLRAEDTAVYYCARDYYGSSYWYFDVWGQGTLVTVSS VL: DIVMTQSPDSLAVSLGERATINCTASESLYSSKHKVHYLAWYQQKPGQPPKLLIYGAQNRYIGVPDRFSGSGSGTDFTLTISSLQAEDVAVYYCAQFYSYPLTFGGGTKVEIK in the records?
Resp: 1.07
